- System: BDF1 mice, P388 leukemia ip, median survival T/C
- protocol.details: NCI In Vivo Anticancer Drug Screen. Data for tumor model P388 Leukemia (intraperitoneal) in B6D2F1 (BDF1) mice
- settings: endpoint: median survival time; dose: 100.0 mg/kg/injection; schedule: Q01DX005 (ip); vehicle: saline with Tween-80; higher = longer survival
Toxic doses and inconclusive results are not listed. Non-standard residues stand in square brackets, D forms with d. Residues, ends and D or L forms follow the SMILES beside them. ξ: configuration not given here. *: point of attachment. Cbz = O=C(OCc1ccccc1)*; Boc = CC(C)(C)OC(=O)*; ξK = NCCCCC(N)C(=O)O; OBn = c1ccc(CO*)cc1
measurement.name: T/C

In [3]: df
Out[3]:
                                    compound   recorded_result
 0  CC(C)(C)OC(=O)NCC(=O)NC(CCCCNC(=O)OCc1ccccc1)C(=O)OCc1ccccc1 (stereo not drawn) (Boc-Gly-[ξK](Cbz)-OBn)   90 % of control
 1  O=C(O)C(Cc1ccccc1)NC(=O)C1CCCN1C(=O)OCc1ccccc1 (stereo not drawn) (Cbz-Pro-Phe-OH; configuration not given here)  101 % of control
 2                                  C#CCCC#C  115 % of control
 3       CCOc1ccc(N2CC(=O)N3CCCN3C(=O)C2)cc1   88 % of control
 4  COC(=O)c1c([N+](=O)[O-])cccc1[N+](=O)[O-]   97 % of control
 5  O=C(NCCCl)N(CCCl)C(=O)Oc1c(Cl)cc(Cl)cc1Cl  112 % of control
 6  COc1cc(N=Nc2c[nH]c3ccccc23)c(OC)cc1N=Nc1ccc([N+](=O)[O-])cc1  106 % of control
 7  CC(=O)Oc1cccnc1C(C#N)C(C)=O (stereo unspecified)   99 % of control
 8  CC(C)(C)C1COP(=O)(c2ccccc2)N(c2ccccc2)C1 (stereo unspecified)   91 % of control
 9           CCOP(=S)(OCC)Oc1cnn(C)c(=S)c1Cl  101 % of control
10                   Cc1cc(Cl)nc(Cl)c1C(N)=O  100 % of control

Source listed as PubChem BioAssay AID328.
